- systemTested: hGIPR (Homo sapiens)
- Sequence (P48546 22-466): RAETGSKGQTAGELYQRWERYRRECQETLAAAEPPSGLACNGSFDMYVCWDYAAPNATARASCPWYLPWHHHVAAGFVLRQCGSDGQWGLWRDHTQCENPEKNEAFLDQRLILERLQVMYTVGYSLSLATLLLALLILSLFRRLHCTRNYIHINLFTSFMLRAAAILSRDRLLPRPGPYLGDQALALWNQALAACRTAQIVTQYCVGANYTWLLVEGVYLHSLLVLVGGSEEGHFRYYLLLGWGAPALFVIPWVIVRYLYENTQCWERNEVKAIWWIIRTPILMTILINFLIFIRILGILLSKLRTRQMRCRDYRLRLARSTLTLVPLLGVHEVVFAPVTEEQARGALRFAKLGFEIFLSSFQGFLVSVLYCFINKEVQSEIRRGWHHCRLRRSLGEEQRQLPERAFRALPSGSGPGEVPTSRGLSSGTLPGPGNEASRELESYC
- testSummary: Functional cAMP activation in the presence of 0.1% casein (no HSA);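 note: intracellular cAMP rise after 30 min at 37 °C read by HTRF against a standard curve, scaled between buffer alone (0%) and top control ligand concentration (100%), four-parameter fit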
- Format: cell-based
- studyConditions: in the presence of 0.1% casein (no HSA); geometric mean; read-out: Relative cAMP EC50, hGIPR
Starred links: 1 amine or outer side, 2 acyl side, 3 side chain; linkers in the order of their positions; H or OH if unused. Non-standard residues stand in square brackets, D forms with d. Groups on a side chain read outwards from the residue. No end group written: not given here. *: point of attachment. C18 diacid = O=C(O)CCCCCCCCCCCCCCCCC(=O)*; αMePhe(2-F) = C[C@](N)(Cc1ccccc1F)C(=O)O; γGlu = O=C(O)[C@H](CCC(=O)[*:2])N[*:1]; αMe4Pal = C[C@](N)(Cc1ccncc1)C(=O)O; αMeY = C[C@](N)(Cc1ccc(O)cc1)C(=O)O; 4Pal = N[C@@H](Cc1ccncc1)C(=O)O; αMeL = CC(C)C[C@](C)(N)C(=O)O; αMeS = C[C@](N)(CO)C(=O)O; Orn = NCCC[C@H](N)C(=O)O; AEEA = NCCOCCOCC(=O)O; Aib = CC(C)(N)C(=O)O
measure: EC50
Write your answer as a measured quantity: the number, then the unit.

QUERY: Provide EC50 value for the following substance: H-Y[Aib]QGTFTSD[4Pal]SR[αMeL]LDKK([γGlu-γGlu-C18 diacid])AQ[αMe4Pal]AFIE[αMe4Pal]LIEGGPSSGAPPPSGS-NH2 [Example 953]
RESULT: 111 pM

QUERY: Provide EC50 value for the following substance: H-Y[Aib]QGTFTSD[4Pal]SK[αMeL]LDKK([AEEA-γGlu-C18 diacid])AQ[αMe4Pal]AFIE[αMe4Pal]LIE[Aib]GPSSGAPPPSGS-NH2 [Example 916]
RESULT: 71.5 pM

QUERY: Provide EC50 value for the following substance: Y[Aib]QGT[αMePhe(2-F)]TSD[4Pal][αMeS]I[αMeL]LD[Orn]K([γGlu-γGlu-C18 diacid])AQ[αMe4Pal]EFI[dE][αMeY]LVEGGPSSGAPPPSGSE-NH2 [Example 1162]
RESULT: 8.18 pM

QUERY: Provide EC50 value for the following substance: H-Y[Aib]QGTFTSDYS[Orn][αMeL]LDKK([AEEA-γGlu-C18 diacid])AQ[Aib]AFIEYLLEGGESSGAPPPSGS-NH2 [Example 359]
RESULT: 281 pM

QUERY: Provide EC50 value for the following substance: H-Y[Aib]QGTFTSD[4Pal]SQ[αMeL]LD[Orn]K([AEEA-γGlu-C18 diacid])AQ[αMe4Pal]AFIE[αMeY]LIEGGPSSGAPPPSGS-NH2 [Example 849]
RESULT: 306 pM

QUERY: Provide EC50 value for the following substance: H-Y[Aib]QGTFTSD[4Pal]SK[αMeL]LDKK([AEEA-γGlu-C18 diacid])AQ[Aib]AFIEYLIE[Aib]GESSGAPPPSGS-NH2 [Example 280]
RESULT: 105 pM

QUERY: Provide EC50 value for the following substance: H-Y[Aib]QGTFTSD[4Pal]S[Orn][αMeL]LDKK([γGlu-γGlu-C18 diacid])AQ[αMe4Pal]AFIEYLIAGGPSSGEPPPSGTEEE-NH2 [Example 982]
RESULT: 328 pM

QUERY: Provide EC50 value for the following substance: H-Y[Aib]QGT[αMePhe(2-F)]TSD[4Pal][αMeS]I[αMeL]LD[Orn]K([AEEA-γGlu-C18 diacid])AQ[αMe4Pal]EFI[dE][αMeY]LVEGGPSSGEPPPEGE-NH2 [Example 1159]
RESULT: 11.8 pM

QUERY: Provide EC50 value for the following substance: Y[Aib]QGTFTSDFSK[αMeL]LDKK([AEEA-γGlu-C18 diacid])AQ[Aib]QFIEYLLAGGPSSGEPPPSEG-NH2 [Example 26]
RESULT: 200 pM

QUERY: Provide EC50 value for the following substance: Y[Aib]QGTFTSDFSK[αMeL]LDKK([AEEA-γGlu-C18 diacid])AQ[Aib]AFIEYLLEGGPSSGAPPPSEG-NH2 [Example 48]
RESULT: 270 pM

QUERY: Provide EC50 value for the following substance: H-Y[Aib]QGTFTSDFS[Orn][αMeL]LDKK([AEEA-AEEA-γGlu-C18 diacid])AQ[Aib]AFIEYLLE[dA]GPSSGEPPPSGE-NH2 [Example 117]
RESULT: 267 pM
